// viability, T/C lookup, one value per entry
# Test system: KRAS-mutant PDC tumor spheroid with HUVEC/MSC, viability
# protocol.summary: Anticancer human tumor 327498-153-R-J2-PDC patient-derived uterine carcinosarcoma cell line growth inhibition [KRAS2]
# condition: second compound 0.316 µM; first compound 1 µM; stronger effect = lower value
value.kind: viability, T/C (%)

[[record]]
compound = "CCN1CCN(Cc2ccc(Nc3ncc(F)c(-c4cc(F)c5nc(C)n(C(C)C)c5c4)n3)nc2)CC1 + C=CC(=O)N1CCN(c2nc(OCC3CCCN3C)nc3c2CCN(c2cccc4cccc(C)c24)C3)CC1CC#N"
study_system = "KRAS-mutant PDC tumor spheroid with HUVEC/MSC, viability"
unit_name = "%"
test_result = 37.9

[[record]]
compound = "CC1(C)CCC(CN2CCN(c3ccc(C(=O)NS(=O)(=O)c4ccc(NCC5CCOCC5)c([N+](=O)[O-])c4)c(Oc4cnc5[nH]ccc5c4)c3)CC2)=C(c2ccc(Cl)cc2)C1 + CNCc1ccccc1-c1csc(C(C)Nc2nc(C)nc3cc(OC)c(OC)cc23)c1"
study_system = "KRAS-mutant PDC tumor spheroid with HUVEC/MSC, viability"
unit_name = "%"
test_result = 76.4

[[record]]
compound = "O=C(c1cc(Cc2n[nH]c(=O)c3ccccc23)ccc1F)N1CCN(C(=O)C2CC2)CC1 + C=CC(=O)N1CCN(c2nc(OCC3CCCN3C)nc3c2CCN(c2cccc4cccc(C)c24)C3)CC1CC#N"
study_system = "KRAS-mutant PDC tumor spheroid with HUVEC/MSC, viability"
unit_name = "%"
test_result = 44.2

[[record]]
compound = "CC(C)NCC(C(=O)N1CCN(c2ncnc3c2C(C)CC3O)CC1)c1ccc(Cl)cc1 (stereo not given) + CC1OCC2(CCN(c3cnc(Sc4ccnc(N)c4Cl)c(N)n3)CC2)C1N"
study_system = "KRAS-mutant PDC tumor spheroid with HUVEC/MSC, viability"
unit_name = "%"
test_result = 13.8

[[record]]
compound = "CC1OCC2(CCN(c3cnc(Sc4ccnc(N)c4Cl)c(N)n3)CC2)C1N (stereo not given) + C=CC(=O)N1CCN(c2nc(=O)n(-c3c(C)ccnc3C(C)C)c3nc(-c4c(O)cccc4F)c(F)cc23)C(C)C1"
study_system = "KRAS-mutant PDC tumor spheroid with HUVEC/MSC, viability"
unit_name = "%"
test_result = 23.3


###

# Test system: KRAS-mutant PDC tumor spheroid with HUVEC/MSC, viability
# protocol.summary: Anticancer human tumor 327498-153-R-J2-PDC cell line growth inhibition [KRAS2]; active = viability on the fitted dose curve at most 10% of control; inactive = the rest;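 further: spheroids exposed to agents for seven days before reading; 100% = DMSO vehicle wells so lower means fewer viable cells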
# condition: second compound 3.16 µM; first compound 3.16 µM
Outcomes: 1 (active), 0 (inactive)

[[record]]
compound = "CC1COCCN1c1cc(-c2ccnn2C)c2ccnc(-c3ccn[nH]3)c2n1 (stereo unspecified) + C=CC(=O)N1CCN(c2nc(=O)n(-c3c(C)ccnc3C(C)C)c3nc(-c4c(O)cccc4F)c(F)cc23)C(C)C1"
label_class = 1

[[record]]
compound = "O=C(c1cc(Cc2n[nH]c(=O)c3ccccc23)ccc1F)N1CCN(C(=O)C2CC2)CC1 + CNCc1ccccc1-c1csc(C(C)Nc2nc(C)nc3cc(OC)c(OC)cc23)c1"
label_class = 1

[[record]]
compound = "COc1cc2nccc(Oc3ccc(NC(=O)C4(C(=O)Nc5ccc(F)cc5)CC4)cc3)c2cc1OC + CC1OCC2(CCN(c3cnc(Sc4ccnc(N)c4Cl)c(N)n3)CC2)C1N"
label_class = 0

[[record]]
compound = "CC(=O)OC12COC1CC(O)C1(C)C(=O)C(O)C3=C(C)C(OC(=O)C(O)C(NC(=O)OC(C)(C)C)c4ccccc4)CC(O)(C(OC(=O)c4ccccc4)C21)C3(C)C (stereo unspecified) + CNCc1ccccc1-c1csc(C(C)Nc2nc(C)nc3cc(OC)c(OC)cc23)c1"
label_class = 1

[[record]]
compound = "Cn1nccc1Nc1nccc(-c2cc3c(s2)C(C)(C)N(CCN2CCOCC2)C3=O)n1 + COc1cc2nc(C)nc(NC(C)c3cc(N)cc(C(F)(F)F)c3)c2cc1OC1CCOC1"
label_class = 0

[[record]]
compound = "COC(=O)c1ccc2c(C(=Nc3ccc(N(C)C(=O)CN4CCN(C)CC4)cc3)c3ccccc3)c(O)[nH]c2c1 + C=CC(=O)N1CCN(c2nc(OCC3CCCN3C)nc3c2CCN(c2cccc4cccc(C)c24)C3)CC1CC#N"
label_class = 1

[[record]]
compound = "CC1COCCN1c1cc(-c2ccnn2C)c2ccnc(-c3ccn[nH]3)c2n1 (stereo unspecified) + COc1cc2nc(C)nc(NC(C)c3cc(N)cc(C(F)(F)F)c3)c2cc1OC1CCOC1"
label_class = 1

[[record]]
compound = "CCNC(=O)CC1N=C(c2ccc(Cl)cc2)c2cc(OC)ccc2-n2c(C)nnc21 (stereo unspecified) + C=CC(=O)N1CCN(c2nc(OCC3CCCN3C)nc3c2CCN(c2cccc4cccc(C)c24)C3)CC1CC#N"
label_class = 1

[[record]]
compound = "CC1OCC2(CCN(c3cnc(Sc4ccnc(N)c4Cl)c(N)n3)CC2)C1N (stereo unspecified) + C=CC(=O)N1CCN(c2nc(=O)n(-c3c(C)ccnc3C(C)C)c3nc(-c4c(O)cccc4F)c(F)cc23)C(C)C1"
label_class = 0

[[record]]
compound = "Cn1nccc1Nc1nccc(-c2cc3c(s2)C(C)(C)N(CCN2CCOCC2)C3=O)n1 + CNCc1ccccc1-c1csc(C(C)Nc2nc(C)nc3cc(OC)c(OC)cc23)c1"
label_class = 1

[[record]]
compound = "CC1COCCN1c1cc(-c2ccnn2C)c2ccnc(-c3ccn[nH]3)c2n1 (stereo unspecified) + CNCc1ccccc1-c1csc(C(C)Nc2nc(C)nc3cc(OC)c(OC)cc23)c1"
label_class = 1


Origin of the recorded values: PubChem BioAssay AID1963867
